Assay Method Text: NCI Yeast Anticancer Drug Screen. Data for the rad50 strain (AID 155);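 also: 0% = growth of vehicle-only cultures of the same strain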
Experimental Parameters: S. cerevisiae rad50 strain growth inhibition; at 100.0 µM; stronger effect = higher value
Compounds without any hit were thinned out: in the full panel of roughly 79,000, 15% have a hit.
Mark class 0 for growth inhibition values under 90%, and class 1 for everything at or above.

*Q* Evaluate S=c1[nH]c2c(Cl)c(Cl)c(Cl)c(Cl)c2[nH]1 : growth inhibition at minimum 90%?
*A* class 1

*Q* Please check the record CCOC(=O)Nc1ccc2c(c1)Cc1ccccc1-2 and state if its growth inhibition is at or above 90%.
*A* class 0

*Q* Item CSc1s[s+]c(SC)c1-c1ccccc1 with growth inhibition of 90% or above?
*A* class 0

*Q* Dear colleague, could you confirm whether Cc1c(-c2ccccc2)[nH]c2ccccc12 has growth inhibition at or above 90%?
*A* class 1

*Q* Is the recorded value of growth inhibition equal to or greater than 90% for this compound? NC(N)=N/N=C/c1cc(Cl)cc(Cl)c1O
*A* class 1

*Q* # bool: growth inhibition of Cc1ccc2c(ccc(/C=C/c3ccc(O)c4ncccc34)[n+]2C)c1 >= 90%
*A* class 0

*Q* Does the reported growth inhibition for Cc1nc2c(ncn2CCO)c(=O)[nH]1 fall at or above the 90% mark?
*A* class 0

*Q* growth inhibition >= 90% for CN(C)CCNc1cccc2sc3ccc(O)cc3c(=O)c12 ?
*A* class 0

*Q* Identify whether the reported growth inhibition of the following compound is 90% or greater: OCCN(CCO)c1ccc2c(c1)Cc1ccccc1-2
*A* class 0

*Q* Evaluate Cc1cc(N=C2C=CC(=[N+](C)C)C=C2)c(N)cc1N : growth inhibition at minimum 90%?
*A* class 0

*Q* Confirm if growth inhibition reported for the compound CCN(CC)CC(O)c1cc(-c2ccc(Cl)cc2)nc2c(-c3ccccc3)cccc12 (stereo not given) is 90% or above.
*A* class 1

*Q* Has Nc1nc(N)c2c(n1)CCC(S(=O)(=O)c1ccc3ccccc3c1)C2 (stereo not given) a recorded growth inhibition greater than or equal to 90%?
*A* class 0

*Q* Confirm if growth inhibition reported for the compound CCc1nc(N)nc(N)c1-c1ccc(NCCCCCCN)c([N+](=O)[O-])c1 is 90% or above.
*A* class 0

*Q* Determine whether measured growth inhibition meets or exceeds 90% for CCn1ncc(N=O)c1N
*A* class 0

*Q* Check this compound for growth inhibition at or above 90%: CCCc1[nH]nc(C(N)=O)c1N=NN(C)C
*A* class 1

*Q* Could you tell me if the measured growth inhibition of CC(C)c1cccc(O)c(=O)c1 reaches 90% or more?
*A* class 1

*Q* Say whether CCCCCCCCCCCCCCCCCCNC(=S)/N=C\C1=C(O)c2ccccc2C1=O shows growth inhibition of 90% or more.
*A* class 0

*Q* Quick check, growth inhibition >= 90%? CCCCCCCCCCCCCCCCNC(=O)/C(=C\c1ccc(Cl)c(Cl)c1)NC(=O)c1ccccc1
*A* class 0

*Q* Is growth inhibition for CCCCCCCCCCCc1nc(N)n[nH]1 at or above 90%?
*A* class 1

*Q* In plain terms: is recorded growth inhibition at least 90% for O/N=C/C1c2ccccc2-c2ccccc21 ?
*A* class 1

*Q* Decide: is the reported value of growth inhibition for O=[N+]([O-])c1c(/C=N/Nc2ccccc2)oc(-c2ccc3c(c2)OCO3)c1-c1ccc2c(c1)OCO2 equal to or greater than 90%?
*A* class 0

*Q* Tell me whether growth inhibition is at least 90% here: CCOC(=O)c1csc(Br)n1
*A* class 0
